// data source = patent US20220056104A1

- systemTested: T1, Recombinant DR3-Fc (R&D Systems, cat. #943-D3) (UniProt Q93038 25-199, limits assumed)
- T1 construct: dimeric MW~92 kDa; also called DR3 receptor; Fc-DR3; not shown: Fc part of the bought fusion
- T1 sequence (looked up): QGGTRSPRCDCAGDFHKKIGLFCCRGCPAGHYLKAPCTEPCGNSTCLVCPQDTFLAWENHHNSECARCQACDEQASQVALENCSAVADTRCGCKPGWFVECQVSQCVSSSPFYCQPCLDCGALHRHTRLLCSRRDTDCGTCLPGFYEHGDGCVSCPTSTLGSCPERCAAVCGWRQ
- protocolDescription: ELISA, DR3-Fc immobilized
# pEC50 listing for each entry below
Convention used: pEC50 is expressed as -log10 of the molar concentration.

Example results:
{"columns": ["binder", "measurementLabel", "assayValue"],
 "data": [
  ["TL1W29 (His-TEV-hTL1A 72-251 P189A) (ligand, also called TL1W29 (P189A)) HHHHHHENLYFQGLKGQEFAPSHQQVYAPLRADGDKPRAHLTVVRQTPTQHFKNQFPALHWEHELGLAFTKNRMNYTNKFLLIPESGDYFIYSQVTFRGMTSECSEIRQAGRPNKPDSITVVITKVTDSYAEPTQLLMGTKSVCEVGSNWFQPIYLGAMFSLQEGDKLMVNVSDISLVDYTKEDKTFFGAFLL", "pEC50", 6.15],
  ["TL1W43 (His-TEV-TL1A Y188S) (ligand, also called TL1W43 (Y188S)) HHHHHHENLYFQGLKGQEFAPSHQQVYAPLRADGDKPRAHLTVVRQTPTQHFKNQFPALHWEHELGLAFTKNRMNYTNKFLLIPESGDYFIYSQVTFRGMTSECSEIRQAGRPNKPDSITVVITKVTDSSPEPTQLLMGTKSVCEVGSNWFQPIYLGAMFSLQEGDKLMVNVSDISLVDYTKEDKTFFGAFLL", "pEC50", 6.68]
]}

I would be grateful if you could share the reported pEC50 for TL1W117 (His-TEV-TL1A T192E) (ligand, also called TL1W117 (T192E)) HHHHHHENLYFQGLKGQEFAPSHQQVYAPLRADGDKPRAHLTVVRQTPTQHFKNQFPALHWEHELGLAFTKNRMNYTNKFLLIPESGDYFIYSQVTFRGMTSECSEIRQAGRPNKPDSITVVITKVTDSYPEPEQLLMGTKSVCEVGSNWFQPIYLGAMFSLQEGDKLMVNVSDISLVDYTKEDKTFFGAFLL .
6.95
